Below, each of the molecules is paired with its reported growth value.
test system: SW-620 colon; assay: NCI-60 one-dose screen, 48 h (100 = growth as untreated, 0 = no growth, -100 = all killed); settings: 10 µM unless noted
The panel holds about 83,000 compounds, 20% with a hit somewhere; the sample as a whole holds those more often.
Readout Kind: growth (%)

O=C1Nc2c(ccc(Cl)c2Cl)/C1=C/c1ccccn1	76.8
[2H]C1([2H])NC([2H])([2H])C([2H])([2H])N(c2ccc(Nc3ncc4cc(C(=O)N(C)C)n(C5CCCC5)c4n3)nc2)C1([2H])[2H]	42.2
CCCCCCN(C)Cc1ccc(OCCOc2ccc(CN(C)CCCCCC)cc2)cc1	-70.2
Nc1nc(SN=Nc2ccc(S(N)(=O)=O)cc2)c2[nH]cnc2n1	19.2
O=S(=O)(c1ccccc1)N1CCCc2ccccc21	104
Nc1c(C(=O)Nc2ccc(Cl)cc2)cc(-c2nc3ccccc3s2)c(=O)n1NS(=O)(=O)c1ccc(Cl)cc1	96.9
N#CSCC1CC(O)(c2ccccc2)C(c2ccccc2)C(c2ccc(F)cc2)O1 (stereo not given)	-1.6
C#CCNC(=O)[C@H](Cc1ccccc1)NC(=O)[C@]12CC[C@@H](C(=C)C)[C@@H]1[C@H]1CC[C@@H]3[C@@]4(C)Cc5c([nH]c6ccccc56)C(C)(C)[C@@H]4CC[C@@]3(C)[C@]1(C)CC2	111
CC(=O)CCSc1ccc(OC(C)=O)cc1	105
Cn1c(=O)c2[nH]c(CCCc3nc4c([nH]3)c(=O)n(C)c(=O)n4C)nc2n(C)c1=O	112
NC(=O)c1ccc[n+](CC(=O)N2CCN(c3cc4c(cc3F)c(=O)c(C(=O)O)cn4C3CC3)CC2)c1	6.58
Cn1c(COC(=O)N2CCCCC2)nc2c(N3CCOCC3)nc(-c3ccccc3)nc21	-69.1
O=C1Nc2ccccc2/C1=N/c1nc(-c2ccc(Cl)cc2)cs1	68.5
CNC(=O)NCC1OC(n2cnc3c(NC(=O)Nc4ccccc4)ncnc32)C(O[Si](C)(C)C(C)(C)C)C1O[Si](C)(C)C(C)(C)C (stereo not given)	36.4
CCOC(=O)c1c(C)nc2c(c1N)C(=O)C(=O)N2Cc1ccc(C(F)(F)F)cc1	35.6
O=C(N=Nc1c(O)[nH]c2ccc(F)cc12)c1cc2ccccc2[nH]1	105
Cn1c2c(Cl)c(Cl)ccc2c2cc(N)[nH]c(=O)c21	77.8
COc1ccc(C(O)c2cc3c(N)c(C(=O)Nc4cccc(Br)c4C)sc3nc2C)cc1 (stereo not given)	25.9
O=C1Nc2cc(-c3ccncc3)ccc2/C1=C/c1ccc[nH]1	105
COc1cc(NCC(O)CN(CC(C)C)C2CCCC2)c2ncccc2c1 (stereo not given)	70.5
CC1(C)NCCC[C@]2(C)[C@H]3CC=C4[C@@H]5C[C@@](C)(CO)CC[C@]5(C)CC[C@@]4(C)[C@]3(C)CC[C@@H]12	74.1
COC(=O)Nc1nc2ccc(C(=O)c3cccc(I)c3)cc2[nH]1	21.3
CC(=O)O[C@H]1CC[C@@]2(C)[C@@H](CC[C@@H]3[C@@H]2CC[C@@]2(C)[C@H]3CC[C@]2(O)C(C)=O)C1	104
CCCCCN1C=C/C(=C\C(=O)N(C)c2cccc3ccccc23)c2ccccc21	94.3
CCOC(=O)C1=C(C)NC(C)=C(C(=O)OCC)C1c1cc(Br)c(O)c(OC)c1	24.6
COc1cc(/C=N/NC(=O)c2ccccc2Nc2cccc(C(F)(F)F)c2)ccc1O	101
Cc1cc(NC(=O)c2cnc(N3CCN(CCOCCOCCOCCOCCC(=O)N[C@H](C(=O)N4C[C@H](O)C[C@H]4C(=O)N[C@@H](C)c4ccc(-c5scnc5C)cc4)C(C)(C)C)CC3)cn2)c2ncccc2c1	-39.9
O=C(/C=C\c1ccc(OCCCCCC[P+](c2ccccc2)(c2ccccc2)c2ccccc2)cc1)c1ccc2c(c1)OCCO2	-41.4
CCNNC(=O)[C@@H]1[C@H](c2cc(OC)c(OC)c(OC)c2)c2cc3c(cc2[C@H](O)[C@H]1CO)OCO3	20.5
COc1ccccc1N1CCN(C(=O)c2ccc3nc(NC(=O)c4ccc(NCCc5ccccc5)c([N+](=O)[O-])c4)sc3c2)CC1	75.1
CCCNC(=O)Oc1ccc(/C(=C(\C)c2ccccc2)c2ccc(OCCN3CCCCC3)cc2)cc1	80.8
COc1ccc(-c2nc(N/N=C/c3cccc(Br)c3)nc(N3CCOCC3)c2C#N)cc1	14
COc1ccc(/C=C/c2n[nH]c3ccc(N4CCOC4=O)cc23)cc1	1.51
C=C(C)[C@@H]1CC[C@]2(C(=O)O)CC[C@]3(C)[C@H](CC[C@@H]4[C@@]5(C)C[C@@H](CC#Cc6ccc(Br)cc6)C(=O)C(C)(C)[C@@H]5CC[C@]43C)[C@@H]12	42.1
O=C(O)CNC(=O)CN1C(=O)c2ccccc2C1=O	105

The measurements presented in this section are drawn from PubChem BioAssay (NCI).
